Form field: IC50 (one value per entry).
Biological target: T1, human GLP-1 receptor (human, UniProt P43220 24-463)
T1 construct: whole, on cells; Used as purified membranes of the transfected hamster cells, not whole cells; also called hGLP-1
Assay: SPA, displacement of 125I-GLP-1(7-36)NH2, 0.005% HSA
*1 amine or outer side, *2 acyl side, *3 side chain or, on linkers, in order; H or OH if unused. Where no end group is shown, it is not given here. Side-chain parts run from the residue outwards. [ ]: non-standard residue; d: D form. The star is where a group is joined. γGlu = O=C(O)[C@H](CCC(=O)[*:2])N[*:1]; C12 diacid = O=C(O)CCCCCCCCCCC(=O)*; 13‑carboxytridecanoyl = C14 diacid; AEEA = NCCOCCOCC(=O)O; Aib = CC(C)(N)C(=O)O

HAEGTFTSDVSK([AEEA-AEEA-γGlu-C12 diacid])YLEEQAVREFIAK([AEEA-AEEA-γGlu-C12 diacid])LVG [GLP-1 derivative of Example 11: [Lys18,Glu22,Val25,Arg26,Lys31,Gly34]-GLP-1-(7-34)-peptide] :: < 1000 nM

Next:
Dear colleague, I am looking for the recorded IC50 of the following binder: `H[Aib]EGTFTSDVSK([AEEA-AEEA-γGlu-13‑carboxytridecanoyl])YLEERAVREFIAK([AEEA-AEEA-γGlu-13‑carboxytridecanoyl])LVG`
< 1000 nM
